Measurement description: Rat PK test
Format: in vivo
Run parameters: plasma, rats, intravenous and oral administration
Provide the reported bioavailability of each item.
Give bare numbers, in %.

Quick request: bioavailability for each listed item, please.
1. CO[C@H]1CC[C@H](NC(=O)N2CCC(n3ncc4cc(C)ccc43)CC2)CC1
2. CO[C@H]1CC[C@H](NC(=O)N2CCC(n3ncc4cc(C(F)(F)F)ccc43)CC2)CC1
3. O=C(NC1CCOCC1)N1CCC(n2ncc3cc(OC(F)(F)F)ccc32)CC1

1. 41
2. 41
3. 69

###

Target or test system: human α7 nAChR (Homo sapiens, UniProt P36544)
Construct: expressed in transfected cells; host or cells: GH4C1 cells derived from rat pituitary (ATCC CCL-82.2)
Sequence (P36544 23-502): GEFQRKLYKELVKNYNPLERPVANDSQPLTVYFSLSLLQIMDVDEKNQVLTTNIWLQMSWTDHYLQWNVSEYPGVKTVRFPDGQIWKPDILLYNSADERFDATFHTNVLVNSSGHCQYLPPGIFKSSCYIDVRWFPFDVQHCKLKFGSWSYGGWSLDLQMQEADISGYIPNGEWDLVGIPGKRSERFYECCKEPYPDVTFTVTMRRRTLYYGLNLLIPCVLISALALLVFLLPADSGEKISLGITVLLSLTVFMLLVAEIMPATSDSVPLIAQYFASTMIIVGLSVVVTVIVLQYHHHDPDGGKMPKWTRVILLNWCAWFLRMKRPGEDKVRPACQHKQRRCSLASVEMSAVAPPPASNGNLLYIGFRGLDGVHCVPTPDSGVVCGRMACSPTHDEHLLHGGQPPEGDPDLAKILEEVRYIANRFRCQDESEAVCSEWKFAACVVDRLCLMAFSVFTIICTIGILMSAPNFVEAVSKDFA
Measurement description: Evaluation of PAM activity with human α7 nACh receptor stably expressing cells (aequorin luminescence, FDSS7000)
Type: cell-based
Run parameters: test compound 10 μmol/L; ACh added at EC20; ratio of RLU (Max-Min) of test wells to control wells
Property: α7PAM (%) @ 10 μmol/L
The number alone won't do; follow it with the unit.

Quick request: α7PAM (%) @ 10 μmol/L for each listed item, please.
1. COC1CC1c1ccc2c(cnn2C2CCN(C(=O)NC3CCC(F)(F)CC3)CC2)c1 (stereo not shown) [Example 248]
2. Cc1ccc2c(cnn2C2CCN(C(=O)N[C@H]3CC[C@H](OCC4CC4)CC3)CC2)c1 [Example 162]
3. CCc1ccc2c(cnn2[C@H]2CC[C@@H](NC(=O)[C@H]3CC[C@@H](OC)CC3)CC2)c1 [Example 124]
4. [2H]C([2H])([2H])c1ccc2c(cnn2C2CCN(C(=O)NC3CCCC3)CC2)c1 [Example 315]
5. COc1ccc2c(c1)c(C)nn2C1CCN(C(=O)NC2CCC(F)(F)CC2)CC1 [Example 243]
6. O=C(NC1CCCCC1)N1CCC(n2ncc3ccccc32)CC1 [Example 39]
7. Cc1ccc2c(cnn2C2CCN(C(=O)NC3CCC(OCC(F)(F)F)CC3)CC2)c1 (stereo not shown) [Example 83]
8. CCOc1ccc2c(cnn2C2CCN(C(=O)c3ccc(C(F)(F)F)cn3)CC2)c1 [Example 132]

851%
1874%
1230%
825%
842%
1892%
420%
361%

###

Provide the reported α7PAM (%) @ 10 μmol/L of each item.
Target or test system: human α7 nAChR (Homo sapiens, UniProt P36544)
Construct: expressed in transfected cells; host or cells: GH4C1 cells derived from rat pituitary (ATCC CCL-82.2)
Measurement description: Evaluation of PAM activity with human α7 nACh receptor stably expressing cells (aequorin luminescence, FDSS7000)
Format: cell-based
Run parameters: test compound 10 μmol/L; ACh added at EC20; ratio of RLU (Max-Min) of test wells to control wells
One number for each entry, in %.

Compound	Unit symbol	α7PAM (%) @ 10 μmol/L
O=C(NC1CC1)N1CCC(n2ncc3cc(C4CC4)ccc32)CC1	%	187

Quick request: α7PAM (%) @ 10 μmol/L for each listed item, please.
1. COCC1CCC(NC(=O)N2CCC(n3ncc4cc(OC(F)(F)F)ccc43)CC2)CC1 (centres unmarked)
2. O=C(NC1CCOCC1)N1CCC(n2ncc3cc(C4CC4)ccc32)CC1
3. COCc1ccc2c(cnn2C2CCN(C(=O)NC3CCC(F)(F)CC3)CC2)c1
4. COc1ccc2c(cnn2C2CCN(C(=O)NC3CCCCC3(F)F)CC2)c1 (centres unmarked)
5. Cc1cccc2c1cnn2C1CCN(C(=O)NC2CCC(OC(F)F)CC2)CC1 (centres unmarked)
6. CCO[C@H]1CC[C@H](NC(=O)N2CCC(n3ncc4c(C5CC5)cccc43)CC2)CC1

1. 276
2. 621
3. 657
4. 1481
5. 117
6. 322

Quick request: α7PAM (%) @ 10 μmol/L for each listed item, please.
1. CCCc1ccc2c(cnn2C2CCN(C(=O)NC3CCC(OC)CC3)CC2)c1 (centres unmarked)
2. COCc1c(C)ccc2c1cnn2C1CCN(C(=O)NC2CCC(F)(F)CC2)CC1
3. COC(C)c1c(C)ccc2c1cnn2C1CCN(C(=O)N[C@H]2CC[C@H](OC)CC2)CC1 (some centres unmarked)
4. COC1CCC(NC(=O)N2CCC(n3nc(C4CCOCC4)c4cc(C)ccc43)CC2)CC1 (centres unmarked)
5. COCC1CCC(NC(=O)N2CCC(n3ncc4cc(Cl)ccc43)CC2)CC1 (centres unmarked)
6. CCc1ccc2c(cnn2C2CCCN(C(=O)NC3CCC(F)(F)CC3)CC2)c1 (centres unmarked)
7. COc1ccc(C2(NC(=O)N3CCC(n4ncc5cc(C6CC6)ccc54)CC3)CC2)cc1
8. COC(C)Cc1ccc2c(cnn2C2CCN(C(=O)NC3CCC(F)(F)CC3)CC2)c1 (centres unmarked)

[420, 800, 307, 603, 832, 453, 196, 868]

Quick request: α7PAM (%) @ 10 μmol/L for each listed item, please.
1. CCOc1ccc2c(cnn2C2CCN(C(=O)c3ccc(F)cn3)CC2)c1
2. COC1CCC(NC(=O)N2CCC(n3ncc4c(C)cccc43)CC2)CC1 (centres unmarked) [Example 94]
3. CCc1ccc2c(cnn2C2CCN(C(=O)C3CCC(F)(F)CC3)CC2)c1
4. Cc1ccc2c(cnn2C2CCN(C(=O)C3CCCC3)CC2)c1
5. COc1c(Br)ccc2c1cnn2C1CCN(C(=O)NC2CCC(F)(F)CC2)CC1

1. 189
2. 154
3. 654
4. 164
5. 1109

Quick request: α7PAM (%) @ 10 μmol/L for each listed item, please.
1. CCOc1ccc2c(cnn2C2CCN(C(=O)N[C@H]3CC[C@H](OC)CC3)CC2)c1C
2. COc1nn(C2CCN(C(=O)NC3CCOCC3)CC2)c2ccc(OC(F)(F)F)cc12
3. CCOc1cccc2c1cnn2C1CCN(C(=O)NC2CCC(F)(F)CC2)CC1
4. COc1nn(C2CCN(C(=O)NC3CCCCC3)CC2)c2ccc(C)cc12
5. O=C(NC1CCC(F)(F)CC1)N1CCC(n2ncc3c(C(F)(F)F)cccc32)CC1
6. [2H]C([2H])([2H])c1ccc2c(cnn2C2CCN(C(=O)NC3CCC(F)(F)CC3)CC2)c1

[215, 263, 699, 941, 359, 1393]

Quick request: α7PAM (%) @ 10 μmol/L for each listed item, please.
1. CCc1ccc2c(cnn2[C@H]2CC[C@@H](NC(=O)C3CCCC3)CC2)c1
2. O=C(C1CCC(F)(F)CC1)N1CCC(n2ncc3ccccc32)CC1
3. CCc1ccc2c(cnn2C2CCN(C(=O)NC3CCOC(C)(C)C3)CC2)c1 (centres unmarked)
4. COc1ccc2c(c1)c(C1=CCOCC1)nn2C1CCN(C(=O)N[C@H]2CC[C@H](OC)CC2)CC1
5. COc1cccc2c1cnn2C1CCN(C(=O)NC2CCCCC2)CC1
6. CCc1cccc2c1cnn2C1CCN(C(=O)C2CCC(F)(F)CC2)CC1

1445
328
523
428
538
1018

Quick request: α7PAM (%) @ 10 μmol/L for each listed item, please.
1. CCOC1CCC(NC(=O)N2CCC(n3ncc4c(C)cccc43)CC2)CC1 (centres unmarked)
2. COCc1nn(C2CCN(C(=O)NC3CCCC3)CC2)c2ccc(C)cc12
3. COC1CCC(NC(=O)N2CCC(n3ncc4cc(C)ccc43)CC2)CC1 (centres unmarked)

1. 143
2. 436
3. 217

###

Target or test system: hERG (human ether-a-go-go) potassium current (Homo sapiens)
Construct: expressed in transfected cells; host or cells: CHO cells
Sequence (Q12809 whole entry): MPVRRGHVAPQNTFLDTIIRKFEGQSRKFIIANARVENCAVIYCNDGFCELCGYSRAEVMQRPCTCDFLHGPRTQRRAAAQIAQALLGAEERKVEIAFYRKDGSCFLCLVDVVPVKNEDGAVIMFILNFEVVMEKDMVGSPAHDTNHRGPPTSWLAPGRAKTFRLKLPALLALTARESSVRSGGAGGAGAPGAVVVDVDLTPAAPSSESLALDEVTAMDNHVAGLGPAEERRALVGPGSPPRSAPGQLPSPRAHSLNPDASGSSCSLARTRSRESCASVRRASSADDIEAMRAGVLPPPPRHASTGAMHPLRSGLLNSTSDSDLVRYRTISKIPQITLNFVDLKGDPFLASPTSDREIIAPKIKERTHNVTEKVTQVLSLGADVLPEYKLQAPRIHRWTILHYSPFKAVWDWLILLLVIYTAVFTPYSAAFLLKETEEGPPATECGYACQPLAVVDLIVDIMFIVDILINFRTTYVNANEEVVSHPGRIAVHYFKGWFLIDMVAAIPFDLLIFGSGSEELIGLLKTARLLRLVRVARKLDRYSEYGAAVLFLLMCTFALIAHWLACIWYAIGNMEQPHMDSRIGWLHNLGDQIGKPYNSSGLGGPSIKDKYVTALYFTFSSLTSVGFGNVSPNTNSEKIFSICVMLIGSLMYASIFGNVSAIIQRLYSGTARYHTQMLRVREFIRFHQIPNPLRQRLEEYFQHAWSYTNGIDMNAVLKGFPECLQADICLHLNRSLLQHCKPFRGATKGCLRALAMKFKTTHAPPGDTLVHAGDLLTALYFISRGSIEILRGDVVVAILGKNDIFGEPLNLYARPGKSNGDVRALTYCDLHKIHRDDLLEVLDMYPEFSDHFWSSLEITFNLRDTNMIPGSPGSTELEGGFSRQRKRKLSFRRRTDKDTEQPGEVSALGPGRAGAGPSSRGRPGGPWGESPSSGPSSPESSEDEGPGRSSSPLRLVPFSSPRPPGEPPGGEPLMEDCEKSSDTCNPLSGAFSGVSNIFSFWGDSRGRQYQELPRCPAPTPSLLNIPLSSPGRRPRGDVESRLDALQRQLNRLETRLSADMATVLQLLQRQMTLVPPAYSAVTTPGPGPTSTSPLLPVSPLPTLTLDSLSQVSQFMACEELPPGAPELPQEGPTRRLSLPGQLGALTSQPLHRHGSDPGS
Measurement description: hERG inhibition test (whole-cell patch clamp, QPatch HT, CHO cells)
Format: cell-based
Run parameters: room temperature
Property: IC50 (µM)
Answers are plain numbers, in µM.

Some solved cases for reference:
Structure smiles	Property	Unit symbol	Assay result
COc1nn(C2CCN(C(=O)NC3CCCCC3)CC2)c2ccc(C)cc12	IC50	µM	47.3
CO[C@H]1CC[C@H](NC(=O)N2CCC(n3ncc4cc(C5CC5)ccc43)CC2)CC1	IC50	µM	13.2

Here's the next entry for you.
IC50 for CO[C@H]1CC[C@H](NC(=O)N2CCC(n3ncc4cc(C)ccc43)CC2)CC1 ?
84.3

###

Target or test system: human α7 nAChR (Homo sapiens, UniProt P36544)
Construct: expressed in transfected cells; host or cells: GH4C1 cells derived from rat pituitary (ATCC CCL-82.2)
Measurement description: Evaluation of PAM activity with human α7 nACh receptor stably expressing cells (aequorin luminescence, FDSS7000)
Type: cell-based
Run parameters: test compound 10 μmol/L; ACh added at EC20; ratio of RLU (Max-Min) of test wells to control wells
Criterion: α7PAM (%) @ 10 μmol/L strictly under 300%. Met: Criterion met. Not met: Criterion not met.

Consider the worked cases shown below.
Structure smiles	Classification
O=C(NCc1ccccc1)N1CCC(n2ncc3cc(C4CC4)ccc32)CC1	Criterion met
CCOc1ccc2c(cnn2C2CCN(C(=O)N[C@H]3CC[C@H](OC)CC3)CC2)c1	Criterion not met

Consider now this further molecule.
Is α7PAM (%) @ 10 μmol/L of COc1ccc2c(cnn2C2CCN(C(=O)N[C@H]3CC[C@H](OC)CC3)CC2)c1OC strictly below 300%?
Criterion met
